- MEASUREMENT PROTOCOL: NCI Yeast Anticancer Drug Screen. Data for the sgs1 mgt1 strain (AID 161);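 note: 0% = growth of cultures given vehicle only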
- MEASUREMENT PARAMETERS: S. cerevisiae sgs1 mgt1 strain, at 50.0 µM, stronger effect = higher value
Compounds without any hit were thinned out: in the full panel of roughly 79,000, 15% have a hit.
QUANTITY: growth inhibition (%)

1. CC1(C)C(=O)C=CC2(C)C1CC(O)C1(C)C2CCC2(C)C(c3ccoc3)OC(=O)C3OC321 (configuration not stated): 82.7
2. CC(Br)c1ccccc1 (configuration not stated): 40.6
3. CC1C(=O)OCC1(C)O (configuration not stated): -5.55
4. [N-]=[N+]=C1C(Cl)=C(Cl)C(Cl)=C1Cl: 99.2
5. CN(CCC(N)CC(=O)NC1C=CC(n2ccc(N)nc2=O)OC1C(=O)O)C(=N)N (configuration not stated): 90.9
6. Oc1cccc[c]1[Hg][Cl]: 99.5
7. COc1cccc(C(Cc2ccc(N3C(N)=NC(N)=NC3(C)C)cc2)C(=O)Nc2ccc(S(=O)(=O)F)cc2)c1 (configuration not stated): 99.8
8. COc1cc(O)c2c(O)c3c(c4c2c1[C@]1(C4)C(C)=CCCC1(C)C)[C@H](O)[C@@]1(O)CC(=O)C(C(N)=O)=C(O)[C@@]1(O)C3=O: 98.7
9. N=P(c1ccccc1)(c1ccccc1)c1ccccc1.[O]=[Cr](=[O])([OH])[O][Cr](=[O])(=[O])[OH]: 37.3
10. N#C[S-].[Ce+3].c1ccc(-c2ccccn2)nc1.c1ccc(-c2ccccn2)nc1.c1ccc(-c2ccccn2)nc1: 92.9
11. CCNC(=O)OCC1C2=C(C(=O)C(C)=C(N)C2=O)N2CC3C(N3C)C12OC (configuration not stated): 47.6
12. COc1cc(C=Nc2cc[c]([Hg][O]C(C)=O)cc2)ccc1O: 99.4
13. O=c1oc2ccccc2c(O)c1C(c1ccc(-c2ccccc2)cc1)c1c(O)c2ccccc2oc1=O: 81.6
14. CC(Cc1ccccc1)N(C)Cc1ccc(-c2ccc(Cl)cc2)o1 (configuration not stated): 33.9
15. NC(=O)CNCc1ccc([As]=O)cc1 (configuration not stated): 71.1
16. O=C(N/N=C/c1cc(Cl)cc(Cl)c1[O-])c1ccccc1O.O=C(N/N=C/c1cc(Cl)cc(Cl)c1[O-])c1ccccc1O.[Zn+2]: 93
17. [Au+].c1c[n-]cn1.c1ccc([PH+](c2ccccc2)c2ccccc2)cc1: 96.2

====

- MEASUREMENT PROTOCOL: NCI Yeast Anticancer Drug Screen. Data for the rad18 strain (AID 177)
- MEASUREMENT PARAMETERS: S. cerevisiae rad18 mutant growth inhibition; at 1.2 µM; stronger effect = higher value
Compounds without any hit were thinned out: in the full panel of roughly 79,000, 15% have a hit.
Classification field: enter y for growth inhibition values not below 10%, n for values below it.

1. COC(COC(=O)N1CCN(C=O)CC1)C1=C(N2CC2)C(=O)C(C)=C(N2CC2)C1=O (centres undefined): y
2. C/C(CCl)=N/NC1=NC(c2ccccc2Cl)P(=O)(NCCCNP2(=O)SC(N/N=C(/C)CCl)=NC2c2ccccc2Cl)S1 (centres undefined): n
3. NNc1ccccc1Cl: y
4. CCOP(=O)(CC(C)P(=O)(OCC)OCC)OCC.C[CH2][Sn]([Cl])([Cl])[CH2]C (centres undefined): n
5. COC(=O)C(F)C(Br)C(=O)OC (centres undefined): y
6. CNC(=O)ON(C(C)=O)C(=O)NC: n
7. CO[C@H](/C(C)=C/C=C/C(C)=C/c1coc(C)n1)[C@H](C)[C@H]1C[C@@H](O)[C@@]2(C)O[C@H]2/C=C/[C@@H](C)[C@@H]2C[C@@H](CC(=O)O2)C[C@H]2O[C@@H]2C(=O)O1: n
8. CNC(=O)OCC1C2=C(C(=O)C(C)=C(N)C2=O)N2CC3C(N3C)C12OC (centres undefined): y
9. CCC1(OC(=O)CN)C(=O)OCc2c1cc1n(c2=O)Cc2cc3ccccc3nc2-1 (centres undefined): y

====

- MEASUREMENT PROTOCOL: NCI Yeast Anticancer Drug Screen. Data for the sgs1 mgt1 strain (AID 161);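 note: 0% = growth of cultures given vehicle only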
- MEASUREMENT PARAMETERS: S. cerevisiae sgs1 mgt1 strain, at 50.0 µM
Compounds without any hit were thinned out: in the full panel of roughly 79,000, 15% have a hit. The source made the active and inactive calls. Rule as the data show it: active = growth inhibition above about 70%; inactive = the rest.
Labels: active, inactive

1) CC(C)=CC1CC(C)C2(CCC3(C)CC4C(C(=O)CC4(C)O)/C(C=O)=C\CC32)O1 (stereo unspecified): active
2) CC(C)CC(NC(=O)C(N)C(C)C)C(=O)NC(CCCCN)C(=O)Nc1ccc(N(CCCl)CCCl)cc1 (stereo unspecified): inactive
3) COc1cc(C(c2c(O)c3ccccc3oc2=O)c2c(O)c3ccccc3oc2=O)cc(OC)c1O: inactive
4) CC1(Cl)CC(C)(/C=C/Cl)C(Cl)CC1Cl (stereo unspecified): inactive
5) CC12CCC(O)CC1CCC1C2CCC2(C)C(C(=O)CC(O)C(F)(F)F)CCC12 (stereo unspecified): inactive
6) Cc1ccc(C#CCN2CCCCC2)cn1: inactive
7) C[C@]12CC[C@H]3[C@@H](C[C@@H](F)C4=CC(=O)CC[C@@]43C)[C@@H]1CC[C@@H]2O: inactive
8) [Se]c1ncnc2nc[nH]c12: inactive
9) O=C1C(=O)c2ccccc2-c2ccccc21.O=C1C(=O)c2ccccc2-c2ccccc21.[Hg]: inactive
10) O=c1c2ccccc2[se]n1-c1ccccc1: active
11) COc1ccc2c3c1OC1C(=O)C4CC5(c6c(O)ccc(O)c64)C(C2)N(C)CCC315 (stereo unspecified): active
12) CC(=O)OC1C(O)C(C)OC(OC2C(OC(=O)C3CCC4C(C3)OC3(CC(OC(=O)/C=C/c5ccccc5)C(C)CO3)C43CO3)OC(C)C(O)C2OC(C)=O)C1O (stereo unspecified): active
13) CCCCCCCCCCCCCCCCCC(=O)[O][Hg][c]1ccccc1: active
14) Cc1nc2ccccc2cc1C[N+]12CN3CN(CN(C3)C1)C2: inactive
15) Clc1c(Cl)c(Cl)c([S][Pb]([c]2ccccc2)([c]2ccccc2)[c]2ccccc2)c(Cl)c1Cl: active
16) CN(C)c1ccc(C2N(Cc3ccc(N(CCCl)CCCl)cc3Cl)CCCN2Cc2ccc(N(CCCl)CCCl)cc2Cl)cc1: active
17) FC(F)(F)c1nc2ccc(SSc3ccc4nc(C(F)(F)F)[nH]c4c3)cc2[nH]1: active
18) NCC(O)c1cccc(O)c1 (stereo unspecified): inactive
19) N#CC(C#N)=Cc1ccc([N+](=O)[O-])s1: active
20) O=C(O)C1C2CCC(C2)C1c1ccccc1 (stereo unspecified): inactive
21) [I][Hg][I].c1ccc(N=P(c2ccccc2)(c2ccccc2)c2ccccc2)cc1: active

====

- MEASUREMENT PROTOCOL: NCI Yeast Anticancer Drug Screen. Data for the rad50 strain (AID 155);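 note: 0% = growth of vehicle-only cultures of the same strain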
- MEASUREMENT PARAMETERS: S. cerevisiae rad50 strain growth inhibition; at 50.0 µM; stronger effect = higher value
The panel holds about 79,000 compounds, 15% with a hit somewhere; the sample as a whole holds those more often. *1 amine or outer side, *2 acyl side, *3 side chain or, on linkers, in order; H or OH if unused. Where a SMILES comes first, the peptide text is derived from it. [ ]: non-standard residue; d: D form. X2 = CC[C@H](C)[C@H](OC(=O)[C@@H](C)[C@@H](CC)N[*:1])C(=O)[*:2]; X3 = C[C@H](N[*:1])C(=O)C(C)(C)C(=O)[*:2]; NMeY = CN[C@@H](Cc1ccc(O)cc1)C(=O)O; NMeL = CN[C@@H](CC(C)C)C(=O)O; NMeV = CN[C@H](C(=O)O)C(C)C
QUANTITY: growth inhibition (%)

1. CCNC(C)(C)C(SS)c1ccc(Br)cc1 (stereo not given): 66.3
2. CNC(=O)N1CN(c2ccccc2)C2(CCN(CCCC(=O)c3ccc(F)cc3)CC2)C1=O: 51.5
3. CN(CCc1ccc(Br)cc1)CCN1CCCCC1: 78.3
4. CN(C)c1ccc(/C=C/c2cc[n+]3ccsc3n2)cc1: 90.8
5. C/C1=C\[C@@H](O)C(=O)/C=C/C=C\c2csc(n2)[C@@H](C)NC(=O)C[C@@]2(CC1)S(=O)SC(=O)[C@]2(C)O (stereo not given in full): 91.6
6. CC(NCCN(C)C)C1CC2CCCCN2C1 (stereo not given): 3.55
7. CC(C)c1cccc(C(C)C)c1NC(=O)C(=O)CC(=O)CC(c1ccccc1)c1c(O)c2ccccc2oc1=O (stereo not given): 59.4
8. CCOC(=O)C1=C(C)NC(=O)NC1c1ccc(N(CCCl)CCCl)cc1Cl (stereo not given): 38.6
9. NN1CCCC1C(=O)O (stereo not given): 23.1
10. COC1OC(COC(C)=O)C(OC(C)=O)C(OC(C)=O)[C]1(OC(C)=O)[Hg][O]C(C)=O (stereo not given): 99.3
11. CC[C@H](C)[C@@H]1OC(=O)[C@@H](C)[C@@H](CC)NC(=O)[C@H](C)NC(=O)C(C)(C)C(=O)[C@H](C)NC(=O)[C@H](Cc2ccc(OC)cc2)N(C)C(=O)[C@H](C(C)C)N(C)C(=O)CNC(=O)[C@H](CC(C)C)N(C)C(=O)CNC1=O (cyclo(A[X2]G[NMeL]G[NMeV][NMeY](Me)[X3])): 92
12. NC1=C(c2nc(-c3ccccc3)cs2)C(c2ccc(Br)cc2)c2c(c3ccccc3oc2=O)O1 (stereo not given): 0.8
13. CCCCCCC1CCC2CCCC(C)N12 (stereo not given): 85.3
14. CCC[CH2][Sn]([CH2]CCC)([S]C#N)[S]C#N: 89.3
15. CC12CCC(O)CC1CCC1C2CCC2(C)C1CC1CC(=O)OC12 (stereo not given): 98.5
16. CCCOc1ccc(/C=C/[N+](=O)[O-])cc1: 52.3
17. CCN(CCCl)c1ccc(/C=C/C2=[N+](C)c3ccccc3C2(C)C)c(C)c1: 62
18. Nc1c(Br)cc(Br)c2c1C(=O)c1ccccc1C2=O: -10.6
19. CCNc1ncc2ccccc2c1-c1ccc(N2CCN(CCCl)CC2)cc1: 97.8
20. CCC1CC2C3Cc4ccc(OC)c(O)c4C2(CCN3C)CC1=O (stereo not given): -6.45
